Measured composite z-score accompanies every entry in the list below.
- MEASURED TARGET: Focal adhesion kinase 1 (Homo sapiens)
- EXPERIMENT: PTK2 protein binding on printed compound slides – biochemical, small-molecule microarray, 635/667 nm fluorescence, BSA, DTT, primary screen (AID 1130);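 note: composite of spot emission at 667 nm and signal to noise over triplicate slides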
- MEASUREMENT SETUP: 635 nm fluorescence, higher = more signal
RECORDED ENDPOINT: composite z-score

INSERT INTO assay_data (compound, measured_result) VALUES
  ('CCCN1C(=O)[C@]2(CCC(=O)OC(C)(C)C)N=C(c3ccc(OCCCO)cc3)O[C@@H]2c2ccccc21', 0.497),
  ('CCOC(=O)C[C@H]1[C@H](OC(=O)c2ccccc2-c2ccccc2)[C@@H](NC(=O)c2ccc3ccccc3c2)c2cc(OCCCO)ccc2N1C(=O)Cc1ccc(OC)cc1', 0.0564),
  ('C=C(CCCC)/C(=C/C[C@H](OC(=O)c1ccncc1)c1ccc(OCCO)cc1)c1cnc2ccccc2c1', 0.525),
  ('COc1ccc([Si](C)(C)[C@@H]2[C@@H](CC(=O)N3CCC[C@H]3CO)O[C@]3(C(=O)N(Cc4ccc(N5CCOC5=O)cc4)c4ccccc43)[C@H]2C)cc1', 0.939),
  ('CCOC(=O)C1=CC[C@@H](c2ccc(OC)cc2)N(S(=O)(=O)c2ccc(C)cc2)[C@H]1CC', 0.493),
  ('CC(C)NC(=O)[C@@H]1c2ccccc2C(=O)N(Cc2ccccc2C(F)(F)F)[C@H]1c1ccc(CO)cc1', -0.156),
  ('C=CC[C@@]1(C(=O)N(C)C)N=C(c2ccc(OCCCO)cc2)O[C@@H]1c1ccccc1CN=[N+]=[N-]', 0.188),
  ('O=C1O[C@H](c2ccccc2)[C@H](c2ccccc2)N2[C@H]1[C@@H](C(=O)O)[C@]1(C(=O)Nc3ccc(C#CCCO)cc31)[C@H]2c1ccc(OCCO)cc1', 0.146),
  ('COC(=O)C1(Cc2ccccc2)C=C2C(=C(C)C(=O)C2C)CN1 (stereo unspecified)', 0.296),
  ('CC(C)C(=C=CC[C@H](O)c1ccccc1OCCO)C[C@H](O)c1cc(Cl)cc(Cl)c1O', 0.0701),
  ('COc1ccc(C(O)C2C=CC3C(=O)NC(=O)C3N2Nc2ccc(Cl)cc2Cl)c2ccccc12 (stereo unspecified)', 0.486),
  ('CCCc1cc2c(n1CCc1ccc(Cl)cc1)C(C)C1CN(C(=O)c3ccccc3)C(C)(C(=O)OC)C21 (stereo unspecified)', 1.96),
  ('COc1cc(OC)c(C(O)C2C=CC3C(=O)N(c4ccccc4)C(=O)C3N2Nc2ccc(C(C)C)cc2)cc1Br (stereo unspecified)', 0.441),
  ('CCCCC(O)C1C=CC2C(=O)N(c3ccccc3)C(=O)C2N1Nc1ccc([N+](=O)[O-])cc1 (stereo unspecified)', 1.16),
  ('O=C1NC(=O)C2C1C=CC(C(O)c1ccc([N+](=O)[O-])cc1)N2Nc1ccccn1 (stereo unspecified)', -0.329),
  ('CCOC(=O)C[C@H]1[C@H](OC(=O)c2ccccc2-c2ccccc2)[C@@H](NC(=O)C2CCCCC2)c2cc(OCCCO)ccc2N1C(=O)c1ccc2ccccc2n1', 0.853),
  ('COCC(=C=CC[C@H](O)c1ccccc1OCCO)C[C@H](O)COCc1ccccc1', 0.516),
  ('CC1CC/C=C\[C@H]2OC34C=CCN(C(C)(C)C)C(=O)[C@H]3N(CCCO)C(=O)[C@@H]4C2C(=O)O1 (stereo partly specified)', -0.441),
  ('C=CCN1Cc2ccccc2[C@H]2OC(c3ccc(OCCCO)cc3)=N[C@@]2(CCS(=O)(=O)c2ccccc2)C1=O', 0.621),
  ('CCOC(=O)c1cn(C[C@H](Cc2ccccc2)NC(=O)N[C@H](CO)CCc2oc(C(C)=O)c(C(=O)OC)c2C(=O)OC)nn1', 0.123),
  ('C[C@@H]1NC(=O)C([C@@H](C)OCc2ccccc2)NC(=O)[C@@]23C(=O)N[C@@H](Cc4ccccc4)C2[C@H](C)[C@@]2(C)O[C@H]2C3/C=C/C/C=C\CNC1=O (stereo partly specified)', -0.526),
  ('CN1C(=O)C2C(C1=O)C1C=C(c3ccc(CO)cc3)C2C(C2CC2)N1C (stereo unspecified)', -0.324),
  ('C[C@@H]1ON(c2ccc(I)cc2)[C@H](c2cccc(NC(=O)OCC3c4ccccc4-c4ccccc43)c2)[C@H]1C(=O)N1C(=O)OC[C@H]1Cc1ccccc1', -0.0828),
  ('Cc1ccc(C(C)CC(O)C2C=CC3C(=O)N(C)C(=O)C3N2Nc2ccccc2)o1 (stereo unspecified)', 0.0621),
  ('CC(C)C(=C=CC[C@H](O)c1ccccc1OCCO)C[C@H](O)COCc1ccccc1', -0.27),
  ('N#Cc1ccc(-c2cccc(=O)o2)cc1', 0.111),
  ('O=C1C2C=CC(C(O)c3c(F)cccc3Cl)N(Nc3ccc([N+](=O)[O-])cc3)C2C(=O)N1c1ccccc1 (stereo unspecified)', 0.682),
  ('COCCOC(=O)N1C(=O)[C@@]2(c3cc(C#CCC(C(=O)OC)C(=O)OC)ccc31)[C@H](C(N)=O)[C@H]1C(=O)O[C@H](c3ccccc3)[C@H](c3ccccc3)N1[C@@H]2c1ccc(O)cc1', 0.601),
  ('C=C(CCCC)/C(=C/C[C@H](OC(=O)c1ccncc1)c1ccccc1OCCO)c1cc(C(=O)OC)ccc1OC', 0.0357),
  ('CC(C)(C)OC(=O)CC[C@]1(C(=O)NCC(O)CO)N=C(c2ccc(OCCCO)cc2)O[C@H]1c1ccccc1N=[N+]=[N-] (stereo partly specified)', 0.696),
  ('CCCCCC1=C2CNC(Cc3ccccc3)(C(=O)OC)C=C2C(C)C1=O (stereo unspecified)', 0.563);

###

- MEASURED TARGET: Torsin-1A-interacting protein 2 (Homo sapiens)
- EXPERIMENT: small molecules binding lysate-expressed LULL1 – cell lysate, human LULL1 lysate, 635/667 nm fluorescence, primary screen (AID 1092);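 note: probe is lysate of COS7 cells overexpressing human LULL1; score merges per-feature 667 nm fluorescence with signal-to-noise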
- MEASUREMENT SETUP: small-molecule microarray, hLULL1 lysate binding, 635 nm fluorescence; higher = more signal
Entry flag: Satisfied if composite z-score reaches 2; Not satisfied if it does not.

INSERT INTO assay_data (compound, answer_label) VALUES
  ('CN1C(=O)C2C(C1=O)C1C=C(c3ccc(CO)cc3)C2C(C2CC2)N1C (stereo not drawn)', 'Not satisfied'),
  ('C=CCOC(=O)[C@@H]1[C@H]2C(=O)O[C@H](c3ccccc3)[C@H](c3ccccc3)N2[C@H](c2ccc(OCCOC(=O)[C@H]3C[C@H]4C(=O)NCC(=O)N4[C@H]3c3cccc(OCCO)c3)cc2)[C@@]12C(=O)Nc1ccc(I)cc12', 'Satisfied'),
  ('Cc1ccccc1C(O)C1C=CC2C(=O)N(c3ccccc3)C(=O)C2N1Nc1ccccc1 (stereo not drawn)', 'Satisfied'),
  ('COCCCNC(=O)[C@@]1(CCC(=O)OC(C)(C)C)COC(c2ccc(OCCCO)cc2)=N1', 'Satisfied'),
  ('COc1cc(CO)cc(I)c1O[C@H]1C=C(C(=O)NCCO)C[C@@H](NC2CCCCCC2)[C@@H]1O', 'Not satisfied'),
  ('O=C1O[C@@H](c2ccccc2)[C@@H](c2ccccc2)N2[C@@H](c3ccc(OCCO)cc3)[C@]3(C(=O)Nc4ccc(C#CCCO)cc43)[C@@H](C(=O)O)[C@H]12', 'Satisfied'),
  ('C=CCNC(=O)[C@H]1[C@@H]2C(=O)O[C@@H](c3ccccc3)[C@@H](c3ccccc3)N2[C@@H](c2ccccc2OCCO)[C@]12C(=O)N(C(=O)OCCOC)c1ccc(C#Cc3ccc(OC)cc3)cc12', 'Satisfied'),
  ('CCCNC(=O)[C@@]1(Sc2ccc(C)cc2)CC(=O)N(Cc2ccccc2Cl)[C@@H]1c1ccc(CO)cc1I', 'Satisfied'),
  ('O=C1C2C=CC(C(O)c3ccc([N+](=O)[O-])cc3)N(Nc3ccccc3F)C2C(=O)N1c1ccccc1 (stereo not drawn)', 'Not satisfied'),
  ('CCOC(=O)C[C@H]1[C@H](OC(=O)c2ccccc2-c2ccccc2)[C@@H](NC(=O)c2ccc3ccccc3c2)c2cc(OCCCO)ccc2N1C(=O)Cc1ccc(OC)cc1', 'Not satisfied'),
  ('O=C1NC(=O)C2C1C=CC(C(O)c1ccc(B(O)O)cc1)N2Nc1ccc(Cl)cc1Cl (stereo not drawn)', 'Not satisfied'),
  ('CCOC(=O)C1=CC[C@@H](c2ccccc2)N(S(=O)(=O)c2ccc(C)cc2)[C@H]1c1ccccc1I', 'Satisfied'),
  ('COC(=O)C(CC#Cc1ccc2c(c1)[C@]1(C(=O)N2)[C@H](C(=O)NC[C@H](O)c2ccccc2)[C@H]2C(=O)O[C@H](c3ccccc3)[C@H](c3ccccc3)N2[C@@H]1c1ccccc1OCCO)C(=O)OC', 'Satisfied');
